- assayed_target: T1, human GIP receptor (human) (UniProt P48546)
- T1 sequence (looked up): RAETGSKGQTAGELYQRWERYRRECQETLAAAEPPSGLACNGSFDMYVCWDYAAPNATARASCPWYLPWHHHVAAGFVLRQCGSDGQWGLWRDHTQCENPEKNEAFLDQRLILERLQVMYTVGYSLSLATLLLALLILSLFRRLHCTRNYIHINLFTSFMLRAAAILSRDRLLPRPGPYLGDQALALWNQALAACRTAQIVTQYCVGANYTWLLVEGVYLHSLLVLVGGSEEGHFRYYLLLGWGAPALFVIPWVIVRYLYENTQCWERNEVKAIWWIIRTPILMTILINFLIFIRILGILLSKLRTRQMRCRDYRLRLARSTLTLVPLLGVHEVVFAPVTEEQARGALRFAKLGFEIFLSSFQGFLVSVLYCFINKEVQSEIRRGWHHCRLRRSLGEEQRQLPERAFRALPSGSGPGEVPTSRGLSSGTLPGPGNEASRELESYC
- assay_summary: cell-based or functional assay
*1 amine or outer side, *2 acyl side, *3 side chain or, on linkers, in order; H or OH if unused. Where no end group is shown, it is not given here. Side-chain parts run from the residue outwards. [ ]: non-standard residue; d: D form. The star is where a group is joined. Decanoyl(10-(4-HOOC-PhO)) = O=C(O)c1ccc(OCCCCCCCCCC(=O)*)cc1; αMePhe(2-F) = C[C@](N)(Cc1ccccc1F)C(=O)O; γGlu = O=C(O)[C@H](CCC(=O)[*:2])N[*:1]; αMeY = C[C@](N)(Cc1ccc(O)cc1)C(=O)O; αMeL = CC(C)C[C@](C)(N)C(=O)O; Orn = NCCC[C@H](N)C(=O)O; AEEA = NCCOCCOCC(=O)O; Aib = CC(C)(N)C(=O)O
Listed here: items and their measured cAMP Emax.
measurement_kind: cAMP Emax (%)

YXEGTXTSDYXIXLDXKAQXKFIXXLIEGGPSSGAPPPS (Y-Aib-EGT-αMeF(2F)-TSDY-Aib-I-αMeL-LD-Orn-K((2-[2-(2-Amino-ethoxy)-ethoxy]-acetyl)-(γ-Glu)-(10-(4-carboxyphenoxy)decanoyl))AQ-Aib-K((2-[2-(2-Amino-ethoxy)-ethoxy]-acetyl)-(γ-Glu)-(10-(4-carboxyphenoxy)decanoyl))FI-(D-Glu)-αMeY-LIEGGPSSGAPPPS-NH2) [Example 372] :: 97.3
Y[Aib]EGT[αMePhe(2-F)]TSDV[Aib]I[αMeL]LD[Orn]K([AEEA-AEEA-γGlu-Decanoyl(10-(4-HOOC-PhO))])AQ[Aib]EFI[dE][αMeY]LIEGGPSSGAPPPSK([AEEA-AEEA-γGlu-Decanoyl(10-(4-HOOC-PhO))])-NH2 [Example 380] :: 100
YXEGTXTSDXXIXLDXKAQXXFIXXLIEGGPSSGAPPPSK (Y-Aib-EGT-αMeF(2F)-TSD-4Pal-Aib-I-αMeL-LD-Orn-K((2-[2-(2-Amino-ethoxy)-ethoxy]-acetyl)2-(γ-Glu)-CO-(CH2)10-CH3)AQ-Aib-4Pal-FI-(D-Glu)-αMeY-LIEGGPSSGAPPPSK((2-[2-(2-Amino-ethoxy)-ethoxyl-acetyl)2-(γ-Glu)-CO-(CH2)10-CH3)-NH2) [Example 420] :: 101
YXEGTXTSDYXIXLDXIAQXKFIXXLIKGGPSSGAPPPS (Y-Aib-EGT-αMeF(2F)-TSDY-Aib-I-αMeL-LD-Orn-IAQ-Aib-K((2-[2-(2-Amino-ethoxy)-ethoxy]-acetyl)-(γ-Glu)-(10-(4-carboxyphenoxy)decanoyl))FI-(D-Glu)-αMeY-LIK((2-[2-(2-Amino-ethoxy)-ethoxy]-acetyl)-(γ-Glu)-(10-(4-carboxyphenoxy)decanoyl))GGPSSGAPPPS-NH2) [Example 376] :: 99.8
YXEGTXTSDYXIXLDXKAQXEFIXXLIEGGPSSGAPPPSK (Y-Aib-EGT-αMeF(2F)-TSDY-Aib-I-αMeL-LD-Orn-K((2-[2-(2-Amino-ethoxy)-ethoxy]-acetyl)-(γ-Glu)-(10-(4-carboxyphenoxy)decanoyl))AQ-Aib-EFI-(D-Glu)-αMeY-LIEGGPSSGAPPPSK((2-[2-(2-Amino-ethoxy)-ethoxy]-acetyl)-(γ-Glu)-(10-(4-carboxyphenoxy)decanoyl))-NH2) [Example 374] :: 96.2
Y[Aib]EGT[αMePhe(2-F)]TSDV[Aib]I[αMeL]LD[Orn]K([AEEA-γGlu-Decanoyl(10-(4-HOOC-PhO))])AQ[Aib]EFI[dE][αMeY]LIK([AEEA-γGlu-Decanoyl(10-(4-HOOC-PhO))])GGPSSGAPPPS-NH2 [Example 379] :: 97.5
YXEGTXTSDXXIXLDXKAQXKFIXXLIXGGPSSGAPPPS (Y-Aib-EGT-αMeF(2F)-TSD-4Pal-Aib-I-αMeL-LD-Orn-K((2-[2-(2-Amino-ethoxy)-ethoxy]-acetyl)3-(γ-Glu)-CO-(CH2)10-CH3)AQ-Aib-K((2-[2-(2-Amino-ethoxy)-ethoxy]-acetyl)3-(γ-Glu)-CO-(CH2)10-CH3)FI-(D-Glu)-αMeY-LI-Orn-GGPSSGAPPPS-NH2) [Example 433] :: 94
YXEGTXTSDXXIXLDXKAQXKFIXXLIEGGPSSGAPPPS (Y-Aib-EGT-αMeF(2F)-TSD-4Pal-Aib-I-αMeL-LD-Orn-K(PEG3-(γ-Glu)-CO-(CH2)12-CO2H)AQ-Aib-K(PEG3-(γ-Glu)-CO-(CH2)12-CO2H)FI-(D-Glu)-αMeY-LIEGGPSSGAPPPS-NH2) [Example 404] :: 101
Y[Aib]EGT[αMePhe(2-F)]TSDV[Aib]I[αMeL]LD[Orn]IAQ[Aib]K([AEEA-AEEA-γGlu-Decanoyl(10-(4-HOOC-PhO))])FI[dE][αMeY]LIK([AEEA-AEEA-γGlu-Decanoyl(10-(4-HOOC-PhO))])GGPSSGAPPPS-NH2 [Example 330] :: 112
YXEGTXTSDXSIXLDXKAQXXFIXXLIKGGPSSGAPPPS (Y-Aib-EGT-αMeF(2F)-TSD-4Pal-SI-αMeL-LD-Orn-K((2-[2-(2-Amino-ethoxy)-ethoxy]-acetyl)2-(γ-Glu)-CO-(CH2)10-CH3)AQ-Aib-Orn-FI-(D-Glu)-αMeY-LIK((2-[2-(2-Amino-ethoxy)-ethoxy]-acetyl)2-(γ-Glu)-CO-(CH2)10-CH3)GGPSSGAPPPS-NH2) [Example 299] :: 101
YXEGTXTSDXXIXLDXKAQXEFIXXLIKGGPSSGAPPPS (Y-Aib-EGT-αMeF(2F)-TSD-4Pal-Aib-I-αMeL-LD-Orn-K((2-[2-(2-Amino-ethoxy)-ethoxy]-acetyl)-(γ-Glu)-CO-(CH2)10-CH3)AQ-Aib-EFI-(D-Glu)-αMeY-LIK((2-[2-(2-Amino-ethoxy)-ethoxy]-acetyl)-(γ-Glu)-CO-(CH2)10-CH3)GGPSSGAPPPS-NH2) [Example 427] :: 95.9
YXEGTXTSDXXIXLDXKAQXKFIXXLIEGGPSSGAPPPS (Y-Aib-EGT-αMeF(2F)-TSD-4Pal-Aib-I-αMeL-LD-Orn-K((2-[2-(2-Amino-ethoxy)-ethoxy]-acetyl)-(γ-Glu)-CO-(CH2)12-CO2H)AQ-Aib-K((2-[2-(2-Amino-ethoxy)-ethoxy]-acetyl)-(γ-Glu)-CO-(CH2)12-CO2H)FI-(D-Glu)-αMeY-LIEGGPSSGAPPPS-NH2) [Example 336] :: 109
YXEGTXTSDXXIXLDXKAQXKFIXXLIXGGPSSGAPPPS (Y-Aib-EGT-αMeF(2F)-TSD-4Pal-Aib-I-αMeL-LD-Orn-K((2-[2-(2-Amino-ethoxy)-ethoxy]-acetyl)2-(γ-Glu)-(10-(4-carboxyphenoxy)decanoyl))AQ-Aib-K((2-[2-(2-Amino-ethoxy)-ethoxy]-acetyl)2-(γ-Glu)-(10-(4-carboxyphenoxy)decanoyl))FI-(D-Glu)-αMeY-LI-Orn-GGPSSGAPPPS-NH2) [Example 408] :: 99.7
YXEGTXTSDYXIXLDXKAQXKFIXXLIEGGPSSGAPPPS (Y-Aib-EGT-αMeF(2F)-TSDY-Aib-I-αMeL-LD-Orn-K((2-[2-(2-Amino-ethoxy)-ethoxy]-acetyl)2-(γ-Glu)-CO-(CH2)10-CH3)AQ-Aib-K((2-[2-(2-Amino-ethoxy)-ethoxy]-acetyl)2-(γ-Glu)-CO-(CH2)10-CH3)FI-(D-Glu)-αMeY-LIEGGPSSGAPPPS-NH2) [Example 300] :: 102
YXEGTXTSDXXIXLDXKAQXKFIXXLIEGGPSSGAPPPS (Y-Aib-EGT-αMeF(2F)-TSD-4Pal-Aib-I-αMeL-LD-Orn-K((2-[2-(2-Amino-ethoxy)-ethoxy]-acetyl)-(γ-Glu)-(10-(4-carboxyphenoxy)decanoyl))AQ-Aib-K((2-[2-(2-Amino-ethoxy)-ethoxy]-acetyl)-(γ-Glu)-(10-(4-carboxyphenoxy)decanoyl))FI-(D-Glu)-αMeY-LIEGGPSSGAPPPS-NH2) [Example 360] :: 106
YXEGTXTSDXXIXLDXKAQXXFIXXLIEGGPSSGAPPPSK (Y-Aib-EGT-αMeF(2F)-TSD-4Pal-Aib-I-αMeL-LD-Orn-K((2-[2-(2-Amino-ethoxy)-ethoxy]-acetyl)2-(γ-Glu)-CO-(CH2)10-CH3)AQ-Aib-Orn-FI-(D-Glu)-αMeY-LIEGGPSSGAPPPSK((2-[2-(2-Amino-ethoxy)-ethoxy]-acetyl)2-(γ-Glu)-CO-(CH2)10-CH3)-NH2) [Example 418] :: 91
YXEGTXTSDXXIXLDXKAQXTFIXXLIKGGPSSGAPPPS (Y-Aib-EGT-αMeF(2F)-TSD-4Pal-Aib-I-αMeL-LD-Orn-K((2-[2-(2-Amino-ethoxy)-ethoxy]-acetyl)2-(γ-Glu)-CO-(CH2)10-CH3)AQ-Aib-TFI-(D-Glu)-αMeY-LIK((2-[2-(2-Amino-ethoxy)-ethoxy]-acetyl)2-(γ-Glu)-CO-(CH2)10-CH3)GGPSSGAPPPS-NH2) [Example 419] :: 101
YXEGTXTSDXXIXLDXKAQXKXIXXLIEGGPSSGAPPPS (not fully specified; Y-Aib-EGT-αMeF(2F)-TSD-4Pal-Aib-I-αMeL-LD-Orn-K((2-[2-(2-Amino-ethoxy)-ethoxy]-acetyl)2-(γ Glu)-CO-(CH2)10H3)AQ-Aib-K((2-[2-(2-Amino-ethoxy)-ethoxy]-acetyl)2-(γGlu)-CO-(CH2)10C3)-αMeFI-(D-Glu)-αMeY-LIEGGPSSGAPPPS-NH2) [Example 430] :: 107
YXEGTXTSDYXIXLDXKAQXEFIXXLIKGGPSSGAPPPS (Y-Aib-EGT-αMeF(2F)-TSDY-Aib-I-αMeL-LD-Orn-K((2-[2-(2-Amino-ethoxy)-ethoxy]-acetyl)2-CO-(CH2)12-CO2H)AQ-Aib-EFI-(D-Glu)-αMeY-LIK((2-[2-(2-Amino-ethoxy)-ethoxy]-acetyl)2-CO-(CH2)12-CO2H)GGPSSGAPPPS-NH2) [Example 388] :: 98.3
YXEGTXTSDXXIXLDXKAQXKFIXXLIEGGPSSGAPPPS (Y-Aib-EGT-αMeF(2F)-TSD-4Pal-Aib-I-αMeL-LD-Orn-K(PEG4-(γ-Glu)-CO-(CH2)12-CO2H)AQ-Aib-K(PEG4-(γ-Glu)-CO-(CH2)12-CO2H)FI-(D-Glu)-αMeY-LIEGGPSSGAPPPS-NH2) [Example 405] :: 100
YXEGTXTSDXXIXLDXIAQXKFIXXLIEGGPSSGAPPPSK (Y-Aib-EGT-αMeF(2F)-TSD-4Pal-Aib-I-αMeL-LD-Orn-IAQ-Aib-K((2-[2-(2-Amino-ethoxy)-ethoxy]-acetyl)-(γ-Glu)-CO-(CH2)12-CO2H)FI-(D-Glu)-αMeY-LIEGGPSSGAPPPSK((2-[2-(2-Amino-ethoxy)-ethoxy]-acetyl)-(γ-Glu)-CO-(CH2)12-CO2H)-NH2) [Example 341] :: 91.4
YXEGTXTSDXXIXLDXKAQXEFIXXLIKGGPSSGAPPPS (Y-Aib-EGT-αMeF(2F)-TSD-4Pal-Aib-I-αMeL-LD-Orn-K((2-[2-(2-Amino-ethoxy)-ethoxy]-acetyl)-(γ-Glu)-(10-(4-carboxyphenoxy)decanoyl))AQ-Aib-EFIe-αMeY-LIK((2-[2-(2-Amino-ethoxy)-ethoxy]-acetyl)-(γ-Glu)-(10-(4-carboxyphenoxy)decanoyl))GGPSSGAPPPS-NH2) [Example 361] :: 107
